test system: K4 kissing-loop RNA reporter; experiment: apparent KD of K4 kissing-loop reporter; higher = weaker reporter binding; conditions: Eterna round: R107; input ligand: FMN 200 uM;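 note: bound reporter read as fluorescence of individual clusters on recovered sequencing chips by microscopy, with normalized cluster intensities fitted with a binding model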
MEASURED_PROPERTY: apparent KD of K4 kissing-loop reporter (nM)

• GCGCGUCAUGUCAGCGGUGCCUAUGUCGAUACCAGCGCCGCAAGGCGCCCUUGGCAGCGACGCGCUGGAGUGAUGUUCCAGCGUG [#2 Exclusion - Theophylline A Attempt #11 (HarryS)] = 148
• UUAUCAUCAGCGGCCGCCACUGCAAAUUGGAGUGAUGUUCCAAGCGUGGAUAUUGAAAUUACUAGUAGGACCGGGUUGAUGAAUU [AK 2 Ex Trypt B] = 158
• GUAUAUCGAACUGAUACCAGAGAAUAUAGCAGUGAUGUUGCAUAUAUGAAUAAGACUCGACUCCCUUGGCAGCGGGAAGAUAUAC [On purpose 2] = 132
• UCUGGUAUAUCUGAUACCAGAGUAUAGUAUCAAUUGCAUAUGGAGUGAUGUUCCAUAUAACUCCCUUGGCAGCAGAUCUAUCUCU [Same State Theophylline B GF 25] = 292
• GCAAGAGAGUGAUGUUGUUUUGAUCAGGGCAAGGAUAUGCUAUAUAGCAGAAGGUGCCGUUUUCUGCUGGCUUUCGUUACCCAUU [theeternabot_exclusion_KL_FMN_A_6] = 750
• AAAUAGAUCAGUCAUCCAGUGAUGUUGGAAGGAGCGUGCGAAAGCACAGGUAGGUCGCCAAAAUAAAACUGGCUGAUCAAAAUAA = 292
• CAUAGACAAGUGAUGUUUGUCAUAACCGAAGGAGCGUCUUUAAAGACAGGUAGGUCGCGGAUUAAUUAAGUUAUGAUUCUUUUUA [JR_SSArginiA_Sub017] = 630
• UGGAGUUGACGAAGAGUCAACUCCUGAGAUACCAGUGACGAAAGUCACCCUUGGCAGCUCUCUGCCAGUGAUGUUGGUUUAUAAG [#07 K4 Theophylline A Same State] = 139
• UCUAACGUUGAGGCGGCAGCGGGCCCAUCUAAGGAUAUCGGUUUACCGAGAAGGUAGUUGGACGAGAGUGAUGUUCUAUUGAGAG [theeternabot_sameState_KL_FMN_A_18] = 207
• UUCUUGAUGGAAACAUCGAGGAUUACUGAUACCAGUAUCGAUAGAUACCCUUGGCAGCAGAAUCAGUGAUCACGAGUGAUGUUCG [Ex Theophylline A K4 10] = 655
• UCCUGCAAUGGACCACGAAAGUGGAUCGAUACCAGAGUCGAAAGACUCCCUUGGCAGCGAGUGAUGUUCGAAGCAGGUAAAUAAA [#SwitchBubble 21 #K4Late] = 492
• CUUAAGAUAUGAGUGAUGUUUAUGUCCGAAGGAGCGUGCGAAAGUACAGGUAGGUCGCGGAUGUGAGUGAUGUUCAUGUAAGCGA [KL-XArg-A13 #analogue] = 132
• UUUGGAGUGGGAGGAUAUCCUAAUAUGGGUGAUGUUAGCGAUGUUGAAGGUGUAGUGAUGUUAUGCGGAGAAGGCCCAGUGUAGA [BDazzled - #18 - Exc. FMN B] = 166
• CCAACAACGAGUGAUGUUCGUUGAUCAGAAGGAGCGUCAAUAAUGACAGGUAGGUCGCUGAUAAUUGGAAAUAGGGCAAUAGCUU [Same State Arginine A GF12] = 110
• UGUAUCAUCUAAGGAUAUAUCAUGUGAUGCACCGAGUAUCGCAUCAAUUCUGAGUGAUGUUCAGGUAUAGAAGGUAGAUGAUGCA [FMN B SS t2] = 207
• UGUAUGGACUGAAGGAGCGCUAGGAAAGUGAGUGAUGUUCAUAUAAAAGUAUAAAGGGUUUGGCAGGUAGGUCGCAGUCCAUACU [KL-SSArg B5] = 225
• AUCACAGUGAUGUUGUGAUAUGGUACAGAUACCAGACUAGUGCUAGUCCCUUGGCAGCUGUACUCAGCAGCACCACUAGCACUCG [Theo A Ex t6b] = 147
• UAACAGGCCCUCACCGUCUUAUUUACAGACCGAGGACCGGUACGGCCGCCACUCGUGAAGUGAUGUUUCAAACAAGCGGUAGGAU = 721
• UGAUACCAGACUGAUACCAGCGAGUGAUGUUCGUUGAAAUCAGGGUCAAAGACCCUGUCUCGCCCUUGGCAGCAGUCUGGUAUCU [TheoBX 22 #SwitchBubble #StaticStem] = 690
• UGAUACCAGACUGAUACCAGCUAGUGAUGUUAGCUGAAAUCAGGGUCAAAGACCCUGUCUGGCCCUUGGCAGCAGUCUGGUAUCU [TheoBX 18 #SwitchBubble #StaticStem] = 83.2
• ACGACGCAUAGUGAUACCAGCACAAUAUGAGUGAUGUUCAACAUAUAAAUGUAAUAAUUAUGCCCUUGGCAGCACUAUGCGUCAG [KL-SSTheoB1] = 658
• AAACGUUGGUCGGAUACCAGCUUGAUCGGAAAACGAUCUGCUGGAGUGAUGUUCCAAUAAAGCCCUUGGCAGCCGACCGACGAAA [MAT - Same State Theophlline B - Mod of Eli - D15] = 662
• AUGGUGGAUCAGUGAUGUUGGUGGAGUAGGUAGGAUAUGAGUGAUGUUAGAAGGAUCGGAGUGAUGUUCCAGGUGGUUGUGUUGU [KL-SSFMN-A3] = 540
